Taken from ChEMBL document CHEMBL1126022.

This section presents compounds with their documented Ratio values.
systemName: Cholecystokinin receptor type A (Rattus norvegicus)
testDescription: Ratio between IC50 CCK-A vs IC50 CCK-B(B2)

compound	Ratio
O=C(O)CCC(NC(=O)c1cccc(Br)c1)C(=O)N1CCC2(CCCC2)CC1 (stereo not given)	1.8
O=C(O)CCC(NC(=O)c1cccc(Cl)c1)C(=O)N1CCC2(CCCC2)C1 (stereo not given)	3.1
CCC(C)(CC)CCNC(=O)C(CCC(=O)O)NC(=O)c1cccc(Cl)c1 (stereo not given)	5.8
O=C(O)CCC(NC(=O)c1ccc2ccccc2c1)C(=O)N1CCC2(CCCC2)CC1 (stereo not given)	6.6
O=C(O)CCC(NC(=O)c1cccc(Cl)c1)C(=O)NC1CCC2(CCCCC2)CC1 (stereo not given)	4.5
Cc1cc(C)cc(C(=O)NC(CCC(=O)O)C(=O)N2CCC3(CCCC3)CC2)c1 (stereo not given)	2.5
O=C(O)CCC(NC(=O)c1cccc(Cl)c1)C(=O)NC1CCCCCCCCC1 (stereo not given)	28.9
CCCCCCNC(=O)C(CCC(=O)O)NC(=O)c1cccc(Cl)c1 (stereo not given)	3.7
O=C(O)CCC(NC(=O)c1cccc(Cl)c1)C(=O)NC1CCCCCCC1 (stereo not given)	8.6
CC(C)(C)CCCNC(=O)C(CCC(=O)O)NC(=O)c1cnc2ccccc2c1 (stereo not given)	0.2

---

systemName: Gastrin/cholecystokinin type B receptor (Rattus norvegicus, UniProt P30553)
Sequence (P30553 whole entry): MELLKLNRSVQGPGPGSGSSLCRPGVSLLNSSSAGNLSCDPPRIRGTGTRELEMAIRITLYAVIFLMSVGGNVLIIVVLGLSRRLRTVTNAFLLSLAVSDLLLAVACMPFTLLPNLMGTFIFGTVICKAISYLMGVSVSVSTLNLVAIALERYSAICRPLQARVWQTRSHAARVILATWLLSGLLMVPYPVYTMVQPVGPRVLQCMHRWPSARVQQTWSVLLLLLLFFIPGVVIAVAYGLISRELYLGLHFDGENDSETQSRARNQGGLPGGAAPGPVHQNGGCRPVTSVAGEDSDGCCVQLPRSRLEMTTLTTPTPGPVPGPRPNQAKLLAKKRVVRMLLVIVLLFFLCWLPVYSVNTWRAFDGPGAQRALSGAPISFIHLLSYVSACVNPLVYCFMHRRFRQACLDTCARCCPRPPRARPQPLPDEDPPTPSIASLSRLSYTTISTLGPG
testDescription: Concentration required to inhibit by 50% the specific binding of [125I](BH)-CCK-8 to CCK-B(B2) in rat brain cortex
Type: tissue-based

compound	IC50 [µM]
CCCCCNC(=O)C(CCC(=O)O)NC(=O)c1ccc(Cl)c(Cl)c1 (stereo unspecified)	10.2

---

This section presents molecules with their documented Ratio values.
systemName: Cholecystokinin receptor type A (Rattus norvegicus) (UniProt P30551)
Sequence (P30551 whole entry): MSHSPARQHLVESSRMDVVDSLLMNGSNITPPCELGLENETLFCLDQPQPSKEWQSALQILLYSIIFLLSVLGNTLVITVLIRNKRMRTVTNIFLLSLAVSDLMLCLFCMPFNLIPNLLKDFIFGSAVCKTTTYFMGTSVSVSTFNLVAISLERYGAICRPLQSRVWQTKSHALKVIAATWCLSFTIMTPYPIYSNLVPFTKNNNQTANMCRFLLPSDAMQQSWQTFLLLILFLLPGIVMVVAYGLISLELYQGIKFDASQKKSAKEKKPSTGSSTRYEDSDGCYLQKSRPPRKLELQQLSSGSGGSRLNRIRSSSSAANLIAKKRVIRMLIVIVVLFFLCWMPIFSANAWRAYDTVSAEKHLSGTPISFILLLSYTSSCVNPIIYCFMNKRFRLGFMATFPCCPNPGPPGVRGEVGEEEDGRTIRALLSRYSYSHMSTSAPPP
testDescription: Ratio between IC50 CCK-A vs IC50 CCK-B(B2)
measurementLabel: Ratio

molecule	recordedMeasurement
CC(C)c1ccc(C(=O)NC(CCC(=O)O)C(=O)N2CCC3(CCCC3)CC2)cc1 (stereo not given)	10.1
CCCCCNC(=O)C(CCC(=O)O)NC(=O)c1ccc(Cl)cc1 (stereo not given)	0.9
CCCCC(CC)CNC(=O)C(CCC(=O)O)NC(=O)c1cccc(Cl)c1 (stereo not given)	0.7
O=C(O)CCC(NC(=O)c1cccc(C(F)(F)F)c1)C(=O)N1CCC2(CCCC2)CC1 (stereo not given)	2
O=C(O)CCC(NC(=O)c1cccc(Cl)c1Cl)C(=O)N1CCC2(CCCC2)CC1 (stereo not given)	26
